Listing of recorded IC50 by entry.
molecular target: mTOR (Homo sapiens, UniProt P42345); construct: endogenous in cells; host or cells: MDA-MB-468 cells (ATCC HTB 132); assay: Assay d) mTOR cellular potency (phospho-AKT Ser473 in MDA-MB-468 cells); assay type: cell-based; conditions: pAKT Ser473, Protocol B (*); read-out: Assay d) mTOR Cell IC50
assay.readout: IC50 (µM)

In [3]: df
Out[3]:
                         chemical_structure  units_of_measure  operator_symbol  data_value
0  CC(C)n1c(=O)n(C)c2cnc3ccc(-c4ccc(OCCCN5CCCCC5)nc4)cc3c21                µM                =        6.76
1  CC(C)n1c(=O)n(C)c2cnc3cc(F)c(-c4ccc(OCCCN(C)C)nc4)cc3c21                µM                >          30
2  CC(C)n1c(=O)n(C)c2cnc3cc(F)c(-c4ccc(OCCCN5CCCCC5)nc4)cc3c21                µM                >          30
3  CC(C)n1c(=O)n(C)c2cnc3ccc(-c4ccc(OCCCN(C)C)nc4F)cc3c21                µM                =        3.49

* * *

molecular target: PI3K-α (Homo sapiens, UniProt P42336); assay: Assay c) PI3K cellular potency (phospho-Akt T308 ELISA in BT474 cells); settings: BT474 cells, 2 h, phospho-AKT T308; may be geometric mean of several tests; read-out: Assay c) PI3Kα Cell IC50
Sequence (P42336 whole entry): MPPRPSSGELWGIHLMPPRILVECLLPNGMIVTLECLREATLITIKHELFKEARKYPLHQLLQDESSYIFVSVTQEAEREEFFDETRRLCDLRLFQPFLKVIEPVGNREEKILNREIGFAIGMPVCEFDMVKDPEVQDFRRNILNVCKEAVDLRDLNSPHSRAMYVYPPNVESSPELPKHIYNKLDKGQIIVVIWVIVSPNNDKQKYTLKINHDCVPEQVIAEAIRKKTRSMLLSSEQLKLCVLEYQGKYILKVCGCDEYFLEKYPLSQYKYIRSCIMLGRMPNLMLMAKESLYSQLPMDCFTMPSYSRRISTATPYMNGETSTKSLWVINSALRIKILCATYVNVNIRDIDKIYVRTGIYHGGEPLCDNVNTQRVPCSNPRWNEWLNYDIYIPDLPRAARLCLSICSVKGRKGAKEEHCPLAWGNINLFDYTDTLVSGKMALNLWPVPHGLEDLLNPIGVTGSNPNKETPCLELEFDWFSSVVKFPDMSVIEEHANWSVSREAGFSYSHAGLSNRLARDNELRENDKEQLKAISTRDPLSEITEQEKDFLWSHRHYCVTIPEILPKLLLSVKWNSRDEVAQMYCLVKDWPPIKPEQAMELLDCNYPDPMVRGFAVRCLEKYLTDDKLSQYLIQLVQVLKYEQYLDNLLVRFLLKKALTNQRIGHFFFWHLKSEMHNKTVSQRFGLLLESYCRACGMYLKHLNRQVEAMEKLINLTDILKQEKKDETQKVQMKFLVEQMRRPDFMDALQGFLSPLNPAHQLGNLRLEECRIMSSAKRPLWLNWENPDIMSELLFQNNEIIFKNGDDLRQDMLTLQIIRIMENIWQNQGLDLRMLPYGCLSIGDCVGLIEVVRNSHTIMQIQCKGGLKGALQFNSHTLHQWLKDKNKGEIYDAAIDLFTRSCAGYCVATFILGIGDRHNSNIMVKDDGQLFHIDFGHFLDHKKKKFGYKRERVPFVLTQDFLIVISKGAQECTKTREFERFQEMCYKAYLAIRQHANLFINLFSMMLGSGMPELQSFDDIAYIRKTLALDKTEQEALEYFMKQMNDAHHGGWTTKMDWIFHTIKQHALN
pIC50: −log10 of the molar value.
We use 5 as the dividing line for pIC50: on or above the line is Y, below is N.

                                    compound                            test_system  class_name
 0  CC(C)n1c(=O)[nH]c2cnc3cc(F)c(-c4ccc(OCCCN5CCCCC5)nc4)cc3c21  PI3K-α (Homo sapiens, UniProt P42336)           N
 1  CC(C)n1c(=O)n(C)c2cnc3ccc(-c4ccc(OCCCN5CCCCC5)nc4)cc3c21  PI3K-α (Homo sapiens, UniProt P42336)           Y
 2  CC(C)n1c(=O)n(C)c2cnc3cc(F)c(-c4ccc(OCCCN5CCCCC5)nc4)cc3c21  PI3K-α (Homo sapiens, UniProt P42336)           N
 3  CC(C)n1c(=O)n(C)c2cnc3cc(F)c(-c4ccc(OCCCN5CCCCC5)nc4F)cc3c21  PI3K-α (Homo sapiens, UniProt P42336)           N
 4  CC(C)n1c(=O)n(C)c2cnc3ccc(-c4ccc(OCCCN5CCCCC5)nc4F)cc3c21  PI3K-α (Homo sapiens, UniProt P42336)           Y
 5  CC(C)n1c(=O)n(C)c2cnc3ccc(-c4ccc(OCCCN5CCCC5)nc4F)cc3c21  PI3K-α (Homo sapiens, UniProt P42336)           Y
 6  CC(C)n1c(=O)n(C)c2cnc3ccc(-c4ccc(OCCCN(C)C)nc4)cc3c21  PI3K-α (Homo sapiens, UniProt P42336)           Y
 7  CC(C)n1c(=O)n(C)c2cnc3ccc(-c4ccc(OCCCN5CCC5)nc4)cc3c21  PI3K-α (Homo sapiens, UniProt P42336)           Y
 8  CC(C)n1c(=O)n(C)c2cnc3cc(F)c(-c4ccc(OCCCN5CCC5)nc4)cc3c21  PI3K-α (Homo sapiens, UniProt P42336)           Y
 9  CC(C)n1c(=O)n(C)c2cnc3cc(F)c(-c4ccc(OCCCN5CCCC5)nc4F)cc3c21  PI3K-α (Homo sapiens, UniProt P42336)           N
10  CC(C)n1c(=O)n(C)c2cnc3ccc(-c4ccc(OCCCN5CCCC5)nc4)cc3c21  PI3K-α (Homo sapiens, UniProt P42336)           Y
11  CC(C)n1c(=O)n(C)c2cnc3cc(F)c(-c4ccc(OCCC[N+]5([O-])CCCCC5)nc4)cc3c21 [Metabolite A]  PI3K-α (Homo sapiens, UniProt P42336)           N
12  CC(C)n1c(=O)n(C)c2cnc3ccc(-c4ccc(OCCCN(C)C)nc4F)cc3c21  PI3K-α (Homo sapiens, UniProt P42336)           Y

* * *

molecular target: ATM kinase (Homo sapiens, UniProt Q13315); construct: endogenous in cells; assay: Assay a) ATM cellular potency (pATM Ser1981 in X-ray irradiated HT29 cells); settings: HT29 cells, 1 h compound, X-ray ~600 cGy, pATM Ser1981; may be geometric mean of several tests; read-out: Assay a) ATM Cell IC50
Sequence (Q13315 whole entry): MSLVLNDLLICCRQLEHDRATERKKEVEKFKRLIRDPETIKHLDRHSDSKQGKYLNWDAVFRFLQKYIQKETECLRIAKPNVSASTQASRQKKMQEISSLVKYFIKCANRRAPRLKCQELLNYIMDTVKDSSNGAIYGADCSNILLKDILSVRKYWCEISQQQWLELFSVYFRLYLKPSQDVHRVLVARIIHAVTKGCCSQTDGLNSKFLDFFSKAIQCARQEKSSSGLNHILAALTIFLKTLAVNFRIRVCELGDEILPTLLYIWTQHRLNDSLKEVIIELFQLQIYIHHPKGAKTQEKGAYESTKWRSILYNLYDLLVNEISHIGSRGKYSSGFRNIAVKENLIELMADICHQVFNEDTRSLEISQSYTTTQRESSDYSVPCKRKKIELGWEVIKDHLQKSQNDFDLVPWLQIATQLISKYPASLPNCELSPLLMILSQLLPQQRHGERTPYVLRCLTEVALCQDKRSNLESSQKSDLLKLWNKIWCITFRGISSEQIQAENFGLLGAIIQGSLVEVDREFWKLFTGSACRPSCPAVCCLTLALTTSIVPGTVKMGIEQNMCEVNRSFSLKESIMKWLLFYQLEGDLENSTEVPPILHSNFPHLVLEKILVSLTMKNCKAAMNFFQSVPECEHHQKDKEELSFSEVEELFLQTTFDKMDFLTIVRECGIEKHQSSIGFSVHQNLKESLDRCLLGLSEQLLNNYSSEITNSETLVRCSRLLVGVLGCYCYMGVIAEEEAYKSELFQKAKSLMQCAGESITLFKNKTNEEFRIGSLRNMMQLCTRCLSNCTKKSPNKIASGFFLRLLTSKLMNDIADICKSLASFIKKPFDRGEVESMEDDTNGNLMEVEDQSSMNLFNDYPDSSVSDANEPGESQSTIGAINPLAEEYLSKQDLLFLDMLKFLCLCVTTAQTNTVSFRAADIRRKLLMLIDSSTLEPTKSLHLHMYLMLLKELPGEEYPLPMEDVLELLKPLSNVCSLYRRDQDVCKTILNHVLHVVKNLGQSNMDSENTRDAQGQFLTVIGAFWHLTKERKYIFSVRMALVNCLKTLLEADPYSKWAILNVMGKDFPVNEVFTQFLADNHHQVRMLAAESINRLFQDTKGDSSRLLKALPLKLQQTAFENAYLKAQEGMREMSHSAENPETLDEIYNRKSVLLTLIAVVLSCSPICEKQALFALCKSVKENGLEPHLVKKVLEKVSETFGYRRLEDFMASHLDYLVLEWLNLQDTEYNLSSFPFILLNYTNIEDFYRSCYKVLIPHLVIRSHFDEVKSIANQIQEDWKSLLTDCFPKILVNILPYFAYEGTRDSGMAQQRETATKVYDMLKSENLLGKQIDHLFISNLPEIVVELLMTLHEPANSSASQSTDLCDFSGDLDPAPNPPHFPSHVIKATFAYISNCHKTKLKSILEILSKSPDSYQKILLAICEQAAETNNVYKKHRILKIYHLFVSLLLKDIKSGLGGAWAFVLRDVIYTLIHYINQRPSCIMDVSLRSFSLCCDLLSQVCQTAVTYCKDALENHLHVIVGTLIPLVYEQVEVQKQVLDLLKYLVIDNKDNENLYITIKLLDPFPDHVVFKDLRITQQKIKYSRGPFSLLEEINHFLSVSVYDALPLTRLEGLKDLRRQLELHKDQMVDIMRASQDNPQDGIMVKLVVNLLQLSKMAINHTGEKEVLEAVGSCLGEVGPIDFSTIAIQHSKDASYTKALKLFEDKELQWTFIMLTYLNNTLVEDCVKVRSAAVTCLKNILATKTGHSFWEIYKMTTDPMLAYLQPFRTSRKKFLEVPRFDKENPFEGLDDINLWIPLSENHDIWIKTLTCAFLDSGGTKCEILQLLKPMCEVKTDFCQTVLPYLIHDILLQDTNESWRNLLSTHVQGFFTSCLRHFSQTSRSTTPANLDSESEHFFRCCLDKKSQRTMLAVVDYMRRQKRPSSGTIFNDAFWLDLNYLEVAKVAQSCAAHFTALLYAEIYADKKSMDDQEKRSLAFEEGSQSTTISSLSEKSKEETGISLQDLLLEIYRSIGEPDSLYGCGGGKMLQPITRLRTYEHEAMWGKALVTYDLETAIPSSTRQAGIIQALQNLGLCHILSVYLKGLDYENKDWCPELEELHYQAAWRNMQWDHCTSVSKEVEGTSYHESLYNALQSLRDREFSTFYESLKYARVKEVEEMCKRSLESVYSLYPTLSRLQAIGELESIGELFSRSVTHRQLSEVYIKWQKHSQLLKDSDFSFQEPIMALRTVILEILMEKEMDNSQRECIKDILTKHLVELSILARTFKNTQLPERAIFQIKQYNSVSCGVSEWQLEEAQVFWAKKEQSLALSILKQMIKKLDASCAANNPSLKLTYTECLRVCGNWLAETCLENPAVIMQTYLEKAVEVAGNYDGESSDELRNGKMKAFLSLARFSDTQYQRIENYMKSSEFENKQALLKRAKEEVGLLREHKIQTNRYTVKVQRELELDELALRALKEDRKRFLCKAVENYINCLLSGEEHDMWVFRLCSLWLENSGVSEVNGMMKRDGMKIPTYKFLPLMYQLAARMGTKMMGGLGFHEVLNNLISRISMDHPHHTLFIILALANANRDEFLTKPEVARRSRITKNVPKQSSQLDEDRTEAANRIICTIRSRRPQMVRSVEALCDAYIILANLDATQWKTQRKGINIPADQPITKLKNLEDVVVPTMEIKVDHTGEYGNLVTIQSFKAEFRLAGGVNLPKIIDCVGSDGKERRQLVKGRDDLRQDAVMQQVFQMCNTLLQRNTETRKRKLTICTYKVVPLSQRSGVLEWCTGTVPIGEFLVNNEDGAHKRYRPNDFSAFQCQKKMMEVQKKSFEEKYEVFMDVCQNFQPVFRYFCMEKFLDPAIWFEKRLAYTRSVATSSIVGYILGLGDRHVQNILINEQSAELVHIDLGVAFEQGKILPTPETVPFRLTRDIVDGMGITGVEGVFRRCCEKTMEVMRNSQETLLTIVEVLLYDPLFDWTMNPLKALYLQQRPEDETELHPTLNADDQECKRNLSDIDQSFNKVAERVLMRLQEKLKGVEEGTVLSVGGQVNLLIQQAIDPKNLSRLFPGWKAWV
pIC50: −log10 of the molar value.
assay.readout: pIC50

                                   compound  data_value
0  CC(C)n1c(=O)n(C)c2cnc3ccc(-c4ccc(OCCCN(C)C)nc4)cc3c21        9.40
1  CC(C)n1c(=O)n(C)c2cnc3cc(F)c(-c4ccc(OCCCN5CCCC5)nc4F)cc3c21        8.88
2  CC(C)n1c(=O)n(C)c2cnc3ccc(-c4ccc(OCCCN5CCCC5)nc4)cc3c21        9.59
3  CC(C)n1c(=O)n(C)c2cnc3ccc(-c4ccc(OCCCN5CCC5)nc4F)cc3c21        8.67
4  CC(C)n1c(=O)n(C)c2cnc3cc(F)c(-c4ccc(OCCCN5CCCC5)nc4)cc3c21        9.08
5  Cn1c(=O)n(C2CC2)c2c3cc(-c4cnc5[nH]ccc5c4)ccc3ncc21 [CN102399218A Compound 62, reference compound]        6.87

* * *

biological target: mTOR (Homo sapiens); construct: endogenous in cells; host or cells: MDA-MB-468 cells (ATCC HTB 132); assay: Assay d) mTOR cellular potency (phospho-AKT Ser473 in MDA-MB-468 cells); format: cell-based; details: pAKT Ser473, Protocol A (§); read-out: Assay d) mTOR Cell IC50
pIC50: −log10 of the molar value.
assay.readout: pIC50

                         chemical_structure  data_value
0  CC(C)n1c(=O)n(C)c2cnc3ccc(-c4ccc(OCCCN(C)C)nc4)cc3c21      < 5.51
1  CC(C)n1c(=O)n(C)c2cnc3cc(F)c(-c4ccc(OCCCN5CCC5)nc4)cc3c21      < 4.52
2  CC(C)n1c(=O)n(C)c2cnc3ccc(-c4ccc(OCCCN5CCCCC5)nc4F)cc3c21      < 5.28
3  CC(C)n1c(=O)n(C)c2cnc3cc(F)c(-c4ccc(OCCCN(C)C)nc4F)cc3c21        4.63
4  CC(C)n1c(=O)n(C)c2cnc3cc(F)c(-c4ccc(OCCCN5CCC5)nc4F)cc3c21      < 4.52
5  CC(C)n1c(=O)[nH]c2cnc3cc(F)c(-c4ccc(OCCCN5CCCCC5)nc4)cc3c21      < 4.52
6  CC(C)n1c(=O)n(C)c2cnc3cc(F)c(-c4ccc(OCCCN5CCCC5)nc4)cc3c21      < 4.70

* * *

Listing of recorded pIC50 by entry.
biological target: mTOR (Homo sapiens, UniProt P42345); construct: endogenous in cells; host or cells: MDA-MB-468 cells (ATCC HTB 132); assay: Assay d) mTOR cellular potency (phospho-AKT Ser473 in MDA-MB-468 cells); format: cell-based; details: pAKT Ser473, Protocol B (*); read-out: Assay d) mTOR Cell IC50
pIC50: −log10 of the molar value.
assay.readout: pIC50

>>> df
                         chemical_structure                          test_system  data_value
0  CC(C)n1c(=O)n(C)c2cnc3ccc(-c4ccc(OCCCN5CCCC5)nc4F)cc3c21  mTOR (Homo sapiens, UniProt P42345)      < 5.00
1  CC(C)n1c(=O)n(C)c2cnc3cc(F)c(-c4ccc(OCCCN5CCCCC5)nc4F)cc3c21  mTOR (Homo sapiens, UniProt P42345)      < 4.52
2  CC(C)n1c(=O)[nH]c2cnc3cc(F)c(-c4ccc(OCCCN(C)C)nc4)cc3c21  mTOR (Homo sapiens, UniProt P42345)      < 5.00
3  CC(C)n1c(=O)n(C)c2cnc3ccc(-c4ccc(OCCCN5CCC5)nc4)cc3c21  mTOR (Homo sapiens, UniProt P42345)        6.39

* * *

Target: mTOR (Homo sapiens)
Construct: endogenous in cells; host or cells: MDA-MB-468 cells (ATCC HTB 132)
Test: Assay d) mTOR cellular potency (phospho-AKT Ser473 in MDA-MB-468 cells)
Type: cell-based
Settings: pAKT Ser473, Protocol B (*); read-out: Assay d) mTOR Cell IC50
Experimental: Assay d): mTOR Cellular Potency This assay was used to measure mTOR inhibition in cells. […] This is measured by any decrease in the phosphorylation of the Akt protein at Ser473 (AKT lies downstream of PI3Kα in the signal transduction pathway) in the MDA-MB-468 cells following treatment with compound. […] The plates were read on an Acumen plate reader as soon as possible, measuring green fluorescence after excitation with 488 nm laser. […]
pIC50: −log10 of the molar value.
Listing of recorded pIC50 by entry.
assay.readout: pIC50

>>> print(df.to_string())
                                   compound  data_value
0  CC(C)n1c(=O)n(C)c2cnc3ccc(-c4ccc(OCCCN5CCC5)nc4F)cc3c21      < 6.52
1  CC(C)n1c(=O)n(C)c2cnc3cc(F)c(-c4ccc(OCCCN5CCCC5)nc4F)cc3c21      < 4.52
2  CC(C)n1c(=O)n(C)c2cnc3ccc(-c4ccc(OCCCN5CCCC5)nc4)cc3c21        5.50
3  CC(C)n1c(=O)n(C)c2cnc3cc(F)c(-c4ccc(OCCC[N+]5([O-])CCCCC5)nc4)cc3c21 [Metabolite A]      < 4.52

The measurements presented in this section are drawn from patent US10457679B2.
